Tested System: Muscarinic acetylcholine receptor M5 (Homo sapiens) (UniProt P08912)
Sequence (P08912 whole entry, looked up): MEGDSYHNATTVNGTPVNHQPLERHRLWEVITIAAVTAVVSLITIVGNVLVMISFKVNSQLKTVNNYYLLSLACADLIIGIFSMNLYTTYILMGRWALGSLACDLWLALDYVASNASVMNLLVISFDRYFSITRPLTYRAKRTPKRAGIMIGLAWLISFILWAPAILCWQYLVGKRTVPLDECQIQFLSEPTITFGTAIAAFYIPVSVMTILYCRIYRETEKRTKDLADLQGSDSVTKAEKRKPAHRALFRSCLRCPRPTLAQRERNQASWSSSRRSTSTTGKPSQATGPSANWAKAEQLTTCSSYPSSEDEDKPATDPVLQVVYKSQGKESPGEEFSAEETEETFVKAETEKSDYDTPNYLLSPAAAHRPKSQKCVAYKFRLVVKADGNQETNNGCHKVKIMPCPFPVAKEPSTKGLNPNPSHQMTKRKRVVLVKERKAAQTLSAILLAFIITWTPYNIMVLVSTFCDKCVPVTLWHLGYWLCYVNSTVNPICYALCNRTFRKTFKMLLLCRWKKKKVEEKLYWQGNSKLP
Test Method Notes: human M5 muscarinic receptor positive allosteric modulators, primary screen, CHO-K1 cells, Fluo-8 calcium fluorescence (AID 624038)
Stated Conditions: CHO-K1 hM5, Fluo-8 calcium, ACh EC20 PAM; at 3 µM; active compounds read high; 0% = ACh EC20, 100% = ACh EC100
The whole screen tested about 360,000 compounds, of which about 1,100 (0.31%) were called active. What follows is part of a selection rich in actives, with near analogues and random picks from the rest.
This section presents molecules with their documented activation values.

Smi: Cc1c(-c2ccccc2)nc(N)c(C#N)c1-c1cccs1
activation, %: -5.86
//
Smi: CCc1nc2ccc(C(=O)N3CCC(O)(Cc4ccccc4)CC3)cn2c1N(C)C(=O)Cc1ccccc1
activation, %: 1.27
//
Smi: CN(C)/C(=N\OC(=O)c1ccccc1)c1nonc1N
activation, %: -4.7
//
Smi: N#Cc1c(-c2ccccc2)c(-c2ccccc2)n[nH]c1=O
activation, %: 20.6
//
Smi: CCN(Cc1ccccc1)C(=O)Cc1ccc(OC)c(S(=O)(=O)N2CCOCC2)c1
activation, %: 0.97
//
Smi: COc1ccc(NC(=O)CS(=O)(=O)c2ccccc2)cc1
activation, %: 18.2
